Values were extracted from patent US20240158446A1.

Listing of recorded pKd by entry.
- ASSAY_SYSTEM: GDP-bound KRAS wild-type protein (Homo sapiens, UniProt P01116)
- Sequence (P01116 whole entry): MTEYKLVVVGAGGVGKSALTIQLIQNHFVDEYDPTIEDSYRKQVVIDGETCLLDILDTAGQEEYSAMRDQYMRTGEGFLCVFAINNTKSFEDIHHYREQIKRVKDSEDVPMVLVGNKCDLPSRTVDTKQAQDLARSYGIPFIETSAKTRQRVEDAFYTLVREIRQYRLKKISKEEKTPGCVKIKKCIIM
- ASSAY_DETAILS: Binding to KRAS by surface plasmon resonance (SPR), Single Cycle Kinetics
- ASSAY_CONDITIONS: SPR Single Cycle Kinetics, GDP-bound KRAS wild-type protein, 1:1 binding model; read-out: KRAS KD
pKd: −log10 of the molar value.

- SMILES_REPR: "CCC[C@H]1C(=O)N[C@@H](CC(C)C)C(=O)N2C[C@@H](OC)C[C@H]2C(=O)N(C)[C@H]2C/C=C\\CCN(C2=O)[C@@H](Cc2ccc(C)cc2)C(=O)N(C)CC(=O)N[C@@H](CCc2cc(F)c(C(F)(F)F)c(F)c2)C(=O)N2C[C@H](OCC)C[C@H]2C(=O)NC2(CCC2)C(=O)N(C)[C@@H](C2CCCC2)C(=O)N(C)[C@H](C(=O)N(C)C)CC(=O)N1C"
  pKd: 8.36
- SMILES_REPR: "CCO[C@@H]1C[C@H]2C(=O)NC3(CC(C)(C)C3)C(=O)N(C)[C@@H](CC3CCC3)C(=O)N(C)[C@H](C(=O)N(C)C)CC(=O)N(C)[C@@H](COC)C(=O)N[C@@H]([C@@H](C)CC)C(=O)N(C3CC3)CC(=O)N(C)[C@H]3C/C=C\\CCN(C3=O)[C@@H](Cc3ccc(C(F)(F)F)cc3)C(=O)N(C)CC(=O)N[C@@H](CCc3ccc(C(F)(F)F)c(OC)c3)C(=O)N2C1"
  pKd: 8.66
- SMILES_REPR: "CCO[C@@H]1C[C@H]2C(=O)NC3(CCC3)C(=O)N(C)[C@@H](C3CCCC3)C(=O)N(CCC3CCC3)[C@H](C(=O)N(C)C)CC(=O)N(C)[C@@H](CC)C(=O)N[C@@H]([C@@H](C)CC)C(=O)N(C)CC(=O)N(C)[C@H]3CCCCCN(C3=O)[C@@H](Cc3ccc(C(F)(F)F)cc3)C(=O)N(C)CC(=O)N[C@@H](CCc3cc(F)c(C(F)(F)F)c(F)c3)C(=O)N2C1"
  pKd: 8.57

---

- ASSAY_SYSTEM: GDP-bound KRAS wild-type protein (Homo sapiens, UniProt P01116)
- ASSAY_DETAILS: Binding to KRAS by surface plasmon resonance (SPR), Single Cycle Kinetics
- ASSAY_CONDITIONS: SPR, Single Cycle Kinetics, 1:1 binding model; GDP-bound KRAS wild-type protein; read-out: KRAS KD
pKd: −log10 of the molar value.
Below, each of the compounds is paired with its reported pKd value.

- SMILES_REPR: "CCO[C@@H]1C[C@H]2C(=O)NC3(CCC3)C(=O)N(C)[C@@H](C3CCCC3)C(=O)N(C)[C@H](C(=O)N(C)C)CC(=O)N(C)[C@@H](CC(C)C)C(=O)N[C@@H]([C@@H](C)CC)C(=O)N(C)CC(=O)N(C)[C@H]3C/C=C\\CCN(C3=O)[C@@H](Cc3ccc(F)cc3C)C(=O)N(C)CC(=O)N[C@@H](CCc3cc(F)c(Cl)c(F)c3)C(=O)N2C1"
  pKd: 8.92
- SMILES_REPR: "CCO[C@@H]1C[C@H]2C(=O)NC3(CCC3)C(=O)N(C)[C@@H](C3CCCC3)C(=O)N(C)[C@H](C(=O)N(C)C)CC(=O)N(C)[C@@H](CC)C(=O)N[C@@H]([C@@H](C)CC)C(=O)N(C)CC(=O)N(C)[C@H]3C/C=C\\CCN(C3=O)[C@@H](Cc3ccc(C(F)(F)F)cc3)C(=O)N(C)CC(=O)N[C@@H](CCc3ccc4sccc4c3)C(=O)N2C1"
  pKd: 9.41
- SMILES_REPR: "CCO[C@@H]1C[C@H]2C(=O)NC3(CCCC3)C(=O)N(C)[C@@H](C3CCCC3)C(=O)N(C)[C@H](C(=O)N(C)C)CC(=O)N(C)[C@@H](CC3CC3)C(=O)N[C@@H]([C@@H](C)CC)C(=O)N(C)CC(=O)N(C)[C@H]3C[C@@H](C)[C@@H](C)CN(C3=O)[C@@H](Cc3ccc(C(F)(F)F)cc3)C(=O)N(C)CC(=O)N[C@@H](CCc3ccc(C(F)(F)F)c(Cl)c3)C(=O)N2C1"
  pKd: 10.43
- SMILES_REPR: "CCO[C@@H]1C[C@H]2C(=O)NC3(CCC3)C(=O)N(C)[C@@H](C3CCCC3)C(=O)N(C)[C@H](C(=O)N(C)CCOC)CC(=O)N(C)[C@@H](CC3CC3)C(=O)N[C@@H]([C@@H](C)CC)C(=O)N(C)CC(=O)N(C)[C@H]3C/C=C\\CCN(C3=O)[C@@H](Cc3ccc(C(F)(F)F)cc3)C(=O)N(C)CC(=O)N[C@@H](CCc3ccc4sccc4c3)C(=O)N2C1"
  pKd: 9.25
- SMILES_REPR: "CCCOC[C@H]1C(=O)N[C@@H]([C@@H](C)CC)C(=O)N(C)CC(=O)N(C)[C@H]2C/C=C\\CCN(C2=O)[C@@H](Cc2ccc(C(F)(F)F)cc2)C(=O)N(C)CC(=O)N[C@@H](CCc2cc(F)c(C(F)(F)F)c(F)c2)C(=O)N2C[C@H](OCC)C[C@H]2C(=O)NC2(CCCC2)C(=O)N(C)[C@@H](C2CCCC2)C(=O)N(C)[C@H](C(=O)N2CCCC2)CC(=O)N1C"
  pKd: 9.72
- SMILES_REPR: "CCO[C@@H]1C[C@H]2C(=O)NC3(CCC3)C(=O)N(C)[C@@H](C3CCCC3)C(=O)N(C)[C@H](C(=O)N3CCOCC3)CC(=O)N(C)[C@@H](CC)C(=O)N[C@@H]([C@@H](C)CC)C(=O)N3CC[C@H]3C(=O)N(C)[C@H]3CC[C@@H](C)CN(C3=O)[C@@H](Cc3ccc(C(F)(F)F)cc3)C(=O)N(C)CC(=O)N[C@@H](CCc3ccc(C(F)(F)F)c(Cl)c3)C(=O)N2C1"
  pKd: 9.64

---

- ASSAY_SYSTEM: GDP-bound KRAS wild-type protein (Homo sapiens, UniProt P01116)
- ASSAY_DETAILS: Binding to KRAS by surface plasmon resonance (SPR), Single Cycle Kinetics
- ASSAY_CONDITIONS: SPR, Single Cycle Kinetics, GDP-bound KRAS wild-type protein; read-out: KRAS KD
pKd: −log10 of the molar value.
# pKd annotations

- SMILES_REPR: "CCO[C@@H]1C[C@H]2C(=O)NC3(CCC3)C(=O)N(C)[C@@H](C3CCCC3)C(=O)N(C)[C@H](C(=O)N(C)C)CC(=O)N(C)[C@@H](CC3CCC3)C(=O)N[C@@H]([C@@H](C)CC)C(=O)N(C)CC(=O)N(C)[C@H]3C/C=C\\CCN(C3=O)[C@@H](Cc3ccc(C(F)(F)F)cc3)C(=O)N(C)CC(=O)N[C@@H](CCc3cc(F)c(C(F)(F)F)c(F)c3)C(=O)N2C1"
  pKd: 10.25
- SMILES_REPR: "CC[C@@H]1C[C@H]2C(=O)NC3(CCCC3)C(=O)N(C)[C@@H](C3CCCC3)C(=O)N(C)[C@H](C(=O)N(C)CC)CC(=O)N(C)[C@@H](C)C(=O)N[C@@H]([C@@H](C)CC)C(=O)N(C)CC(=O)N(C)[C@H]3C/C=C\\CCN(C3=O)[C@@H](Cc3ccc(C(F)(F)F)cc3)C(=O)N(C)CC(=O)N[C@@H](CCc3cc(F)c(C(F)(F)F)c(F)c3)C(=O)N2C1"
  pKd: 9.54
